measured_target: TcBDF2 / TcBD2 (TcBDF2HA) (Trypanosoma cruzi)
Sequence (A0A2V2V5V1 2-119): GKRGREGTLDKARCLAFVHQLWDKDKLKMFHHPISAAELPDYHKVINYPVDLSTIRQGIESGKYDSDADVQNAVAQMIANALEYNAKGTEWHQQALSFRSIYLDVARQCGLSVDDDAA
experiment_description: intrinsic tryptophan fluorescence quenching
Each entry below carries its reported Kd.
assay_metric: Kd

compound	assay_metric	assay_result
CCOC(=O)Nc1cc(-c2ccc(C)c(NS(C)(=O)=O)c2)nn2c(C)nnc12 [Bromosporine]	Kd	~14 µM
COc1cc2c(cc1-c1c(C)noc1C)ncc1[nH]c(=O)n([C@H](C)c3ccccn3)c12 [iBET-151]	Kd	~14 µM
COc1cc(OC)c2c(=O)[nH]c(-c3cc(C)c(OCCO)c(C)c3)nc2c1 [RVX-208]	Kd	> 150 µM
